# Tested on: 786-0
# assay.notes: NCI tumour cell line growth inhibition, 48 h
The source made the active and inactive calls. Cut-off read from the data, not from the text of the source: active = GI50 up to about 1.1 µM and inactive = higher.
Below: a set of entries, each annotated with reported GI50.

Examples with answers:
Qu. Dear colleague, I am looking for the recorded GI50 of the following molecule: `Cc1ccc(S(=O)(=O)N2c3ccccc3[C@H]3CCC=C[C@H]32)cc1`
Ans. 13.2 µM (inactive)

Qu. Do the same for CC12OC3CC(O1)C1(C=O)C4CCC5(C)C(c6ccc(=O)oc6)CCC5(O)C4CCC1(C3)O2 (stereo not drawn) please
Ans. 0.122 µM (active)

Others:
Qu. Dear colleague, I am looking for the recorded GI50 of the following molecule: N#Cc1ccc(C2NN=CC23C(=O)c2ccccc2OC3c2ccccc2)cc1 (stereo not drawn)
Ans. 32.1 µM (inactive)

Qu. Do the same for `CS(=O)(=O)OCCN1CCC2(CC1)SSC1(CCN(CCOS(C)(=O)=O)CC1)S2` please
Ans. 56.9 µM (inactive)

Qu. Do the same for `Cc1cc(NCCCCCCCCNc2cc(C)nc3cc(N)ccc23)c2ccc(N)cc2n1` please
Ans. 18.9 µM (inactive)

Qu. Do the same for Cc1ccc(S(=O)(=O)C2=C([Si](C)(C)C)C3CC2[C@@H]2C4C=CC(CC4)[C@H]32)cc1 (stereo partly drawn) please
Ans. 34.6 µM (inactive)

Qu. Do the same for `Nc1nc(-c2cccc([N+](=O)[O-])c2)cc(-c2cc(-c3cccc([N+](=O)[O-])c3)nc(N)n2)n1` please
Ans. > 100 µM (inactive)

Qu. Do the same for `CN(C)CCn1c(=O)c2ccc(NCCCN(C)CCCNc3ccc4c(=O)n(CCN(C)C)c(=O)n5c6ccc([N+](=O)[O-])cc6c(=O)c3c45)c3c(=O)c4cc([N+](=O)[O-])ccc4n(c1=O)c23` please
Ans. < 0.01 µM (active)

----------
# System: T47D
# assay.notes: NCI tumour cell line growth inhibition, 48 h
The source made the active and inactive calls. Rule as the data show it: active = GI50 up to about 1.1 µM and inactive = higher.
experimental.readout: GI50

Examples with answers:
Qu. Dear colleague, I am looking for the recorded GI50 of the following compound: CCC1(c2ccc(N3C(=O)c4cccc5cc([N+](=O)[O-])cc(c45)C3=O)cc2)CCC(=O)NC1=O (stereo not drawn)
Ans. 24.4 µM (inactive)

Qu. Do the same for C=CCSc1nc2c(N)ncnc2n1C1OC(CO)C(O)C1O (stereo not drawn) please
Ans. > 100 µM (inactive)

Qu. Do the same for `Cc1nc(-c2ccccc2)c(-c2ccccc2)s1` please
Ans. 37.8 µM (inactive)

Others:
Qu. Dear colleague, I am looking for the recorded GI50 of the following compound: `Cc1ccc(S(=O)(=O)N2c3ccccc3[C@H]3CCC=C[C@H]32)cc1`
Ans. 4.97 µM (inactive)

Qu. Do the same for CC(C)(Oc1ccc(C2C[C@H]2Cl)cc1)C(=O)O (stereo partly drawn) please
Ans. 15.3 µM (inactive)

Qu. Do the same for CN(C)CC1CCC/C(=C\c2ccc(OC(=O)/C=C/c3ccc(Cl)cc3)cc2)C1=O (stereo not drawn) please
Ans. 1.15 µM (inactive)

Qu. Do the same for `Nc1ccc(CCSSCCc2ccc(N)cc2)cc1` please
Ans. 35.6 µM (inactive)

Qu. Do the same for CC1=C(C(=O)c2ccccc2)C23C(=O)N(c4ccccc4)C(=O)C2=C(O)C=CC3(O)N1 (stereo not drawn) please
Ans. 37.2 µM (inactive)

Qu. Do the same for `C[C@]12CC[C@H](O)C[C@@H]1CC[C@@H]1[C@@H]2CC[C@]2(C)[C@@H](c3cc(C(F)(F)F)[nH]n3)CC[C@@H]12` please
Ans. 5.26 µM (inactive)

Qu. Do the same for `CCCCN(C)C(=O)C1=C(C)NC(C)=C(C(=O)N(C)CCCC)C1` please
Ans. 54.7 µM (inactive)

Qu. Do the same for `Nc1c(-c2nc3ccccc3o2)sc(=S)n1-c1ccc(Cl)cc1` please
Ans. 2.58 µM (inactive)

Qu. Do the same for `CNNC1=NS(=O)(=O)c2cc(C(=O)OC)c(Cl)cc2S1` please
Ans. > 10 µM (inactive)

Qu. Do the same for `CCOc1nc2c(N3CCCC3)nc(N3CCNCC3)nc2nc1NCc1ccccc1` please
Ans. 1.46 µM (inactive)

----------
Below: a set of entries, each annotated with reported GI50.
# System: MCF7
# assay.notes: NCI tumour cell line growth inhibition, 48 h
Calls of active or inactive are those of the source. Cut-off read from the data, not from the text of the source: active = GI50 up to about 1.1 µM and inactive = higher.

Qu. Dear colleague, I am looking for the recorded GI50 of the following molecule: O=C1C2CC=CCC2C(=O)N1n1c(Cc2ccc(Cl)cc2)n[nH]c1=O (stereo not drawn)
Ans. > 100 µM (inactive)

Qu. Do the same for O=C1CC(c2ccccc2Cl)C2(C(=O)NC(=O)NC2=O)C(c2ccccc2Cl)C1 (stereo not drawn) please
Ans. 54.1 µM (inactive)

Qu. Do the same for `N#CCCN(CCC#N)c1ccc(C(=N/c2ccc(F)cc2)/N=N/c2ccc(Cl)cc2)cc1` please
Ans. > 100 µM (inactive)

Qu. Do the same for `Cc1c2cc[n+](C)cc2c(C)c2c1[nH]c1ccccc12` please
Ans. 3.08 µM (inactive)

Others:
Qu. Dear colleague, I am looking for the recorded GI50 of the following molecule: CC1=C(/C=C/C(C)=C/C=C/C(C)=C/C(=O)O)C(C)(C)CCC1 [TRETINOIN]
Ans. 29 µM (inactive)

Qu. Do the same for `CCOC(=O)NC(=O)c1cn(CCN(CCO)C(=O)NCCCCCCNC(=O)N(CCO)CCn2cc(C(=O)NC(=O)OCC)c(=O)[nH]c2=O)c(=O)[nH]c1=O` please
Ans. > 100 µM (inactive)

Qu. Do the same for `C=CCSC1=N/C(=C\c2ccc(OC)cc2)C(=O)N1CC=C` please
Ans. 28.4 µM (inactive)

Qu. Do the same for `CC[C@]1(O)C[C@H]2CN(CCc3c([nH]c4ccccc34)[C@@](C(=O)OC)(c3cc4c(cc3OC)N(C)[C@H]3[C@@](O)(C(=O)OC)[C@H](OC(C)=O)[C@]5(CC)C=CCN6CC[C@]43[C@@H]65)C2)C1` please
Ans. 0.00045 µM (active)

----------
# Test system: SN12C
# assay.notes: NCI tumour cell line growth inhibition, 48 h
Calls of active or inactive are those of the source. Rule as the data show it: active = GI50 up to about 1.1 µM and inactive = higher.
experimental.readout: GI50

Examples with answers:
Qu. Dear colleague, I am looking for the recorded GI50 of the following molecule: `c1ccc(Cn2c(-c3ccc(-c4ccccc4)cc3)cc3ccccc32)cc1`
Ans. > 100 µM (inactive)

Qu. Do the same for `Cc1ccc2c(=O)c(-c3nnsn3)c[nH]c2n1` please
Ans. > 100 µM (inactive)

Qu. Do the same for NCCC(=O)NC(Cc1c[nH]cn1)C(=O)O (stereo unspecified) please
Ans. > 100 µM (inactive)

Qu. Do the same for `COC(=O)NC(C(F)(F)F)(C(F)(F)F)P1(=O)OCCCO1` please
Ans. 34.8 µM (inactive)

Qu. Do the same for `CCNc1nnc(CSc2nc(-c3ccccc3)c(-c3ccccc3)[nH]2)s1` please
Ans. 20.8 µM (inactive)

Now take the following molecule into account.
Qu. Dear colleague, I am looking for the recorded GI50 of the following molecule: CCOC(=O)c1c(-c2ccc(Cl)cc2)c(C#N)c(=S)n(C2OC(CO)C(O)C(O)C2O)c1-c1ccccc1 (stereo unspecified)
Ans. 38.4 µM (inactive)

----------
# Test system: EKVX
# assay.notes: NCI tumour cell line growth inhibition, 48 h
The source made the active and inactive calls. Rule as the data show it: active = GI50 up to about 1.1 µM and inactive = higher.
Below: a set of entries, each annotated with reported GI50.

Examples with answers:
Qu. Dear colleague, I am looking for the recorded GI50 of the following compound: O=C1CCCCCCCCCCC1CN1CCCCC1 (stereo unspecified)
Ans. > 100 µM (inactive)

Qu. Do the same for COC(CNC(=O)C(C)NC(=O)C(C)NC(=O)c1ccccc1)OC (stereo unspecified) please
Ans. > 100 µM (inactive)

Others:
Qu. Dear colleague, I am looking for the recorded GI50 of the following compound: C=C1C(=O)OC2CC1C(O)C/C(C)=C/CC/C(C)=C/C(O)CC2C (stereo unspecified)
Ans. 1.87 µM (inactive)

Qu. Do the same for CC(=O)Oc1ccc2c(c1)CC[C@@H]1C2CC[C@]2(C)C(=O)NC(=O)CC12 (stereo partly specified) please
Ans. 23.9 µM (inactive)

Qu. Do the same for `CCCC(=O)NC(Nc1ccc(S(=O)(=O)Nc2nc(C)cc(C)n2)cc1)(C(F)(F)F)C(F)(F)F` please
Ans. > 100 µM (inactive)

Qu. Do the same for COc1ccc2c(c1)OCC1(O)Cc3ccccc3OC21 (stereo unspecified) please
Ans. > 100 µM (inactive)

----------
# System: A549
# assay.notes: NCI tumour cell line growth inhibition, 48 h
The source made the active and inactive calls. Rule as the data show it: active = GI50 up to about 1.1 µM and inactive = higher.
Valid outcomes are listed here; reply with one: active, inactive

Qu. Per the records of this test, what outcome belongs to `Cc1ccc(S(=O)(=O)NCCCSCCSCCCN)cc1` ?
Ans. inactive

Others:
Qu. Per the records of this test, what outcome belongs to COC(=O)C1CCCN1C(=O)C(Cc1cn(S(=O)(=O)c2ccc(C)cc2)cn1)NC(=O)OC(C)(C)C (centres undefined) ?
Ans. inactive

Qu. Do the same for `CCc1nc(N)nc(N)c1-c1ccc(N(C)Cc2ccccc2)c([N+](=O)[O-])c1` please
Ans. active
